target: Acetylcholinesterase (Homo sapiens, UniProt P22303); assay: Inhibition of human acetylcholinesterase using […] as substrate preincubated for 4.5 mins followed by substrate addition measured after 2.5 mins by Ellman's spectrophotometric method
Sequence (P22303 whole entry): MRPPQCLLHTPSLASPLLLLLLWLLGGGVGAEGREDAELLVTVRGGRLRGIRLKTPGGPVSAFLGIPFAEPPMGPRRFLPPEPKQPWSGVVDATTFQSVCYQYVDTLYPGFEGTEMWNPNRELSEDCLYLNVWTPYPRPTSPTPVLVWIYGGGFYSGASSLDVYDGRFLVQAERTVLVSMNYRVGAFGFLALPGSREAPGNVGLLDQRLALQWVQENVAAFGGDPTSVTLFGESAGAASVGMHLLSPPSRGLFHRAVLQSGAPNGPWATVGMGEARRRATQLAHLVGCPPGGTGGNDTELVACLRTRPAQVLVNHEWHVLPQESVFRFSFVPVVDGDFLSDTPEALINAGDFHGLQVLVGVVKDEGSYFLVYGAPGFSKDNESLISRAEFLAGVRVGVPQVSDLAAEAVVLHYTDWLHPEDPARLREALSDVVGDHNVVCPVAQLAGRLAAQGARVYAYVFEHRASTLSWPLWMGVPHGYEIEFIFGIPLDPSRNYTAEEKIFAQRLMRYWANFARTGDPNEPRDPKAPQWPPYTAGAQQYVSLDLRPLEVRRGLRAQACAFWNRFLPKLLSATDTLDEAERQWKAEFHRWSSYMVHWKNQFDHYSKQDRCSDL
measurement-label: log10 of IC50 (log10 of the value in µM)
Hey, these are logged values: log10 of IC50, µM being the unit before logging.

Solved cases below.
Prompt line: Tell me log10 of IC50 of COc1ccccc1C1N(C)Cc2cc(O)ccc2N1C (configuration not stated) when tested on Acetylcholinesterase (Homo sapiens, UniProt P22303).
Response line: 2.29

Prompt line: Specify log10 of IC50 for CN1Cc2cc(O)ccc2N(C)C1c1cc[nH]c1 (configuration not stated) , system Acetylcholinesterase (Homo sapiens, UniProt P22303).
Response line: 2.06

Prompt line: Give reported log10 of IC50 for Cc1cccc(C2N(C)Cc3cc(O)ccc3N2C)c1 (configuration not stated) (Acetylcholinesterase (Homo sapiens, UniProt P22303))
Response line: 2.64

Prompt line: Enter recorded log10 of IC50 with Acetylcholinesterase (Homo sapiens, UniProt P22303) for CN1Cc2cc(O)ccc2N(C)C1c1ccccc1 (configuration not stated) here.
Response line: 2.51

Prompt line: Give log10 of IC50; test system Acetylcholinesterase (Homo sapiens, UniProt P22303); compound CN1Cc2cc(O)ccc2N(C)C1c1cccc2ccccc12 (configuration not stated)
Response line: 2.53

Next:
Prompt line: Name the recorded log10 of IC50 of CCCN1Cc2cc(O)ccc2N(C)C1c1ccccc1 (configuration not stated) , assay system Acetylcholinesterase (Homo sapiens, UniProt P22303).
Response line: 2.45

Prompt line: State log10 of IC50 on Acetylcholinesterase (Homo sapiens, UniProt P22303). Entry: CN1Cc2cc(O)ccc2N(C)C1c1c(Cl)cccc1Cl (configuration not stated)
Response line: 1.13

Prompt line: GET log10 of IC50 | system: Acetylcholinesterase (Homo sapiens, UniProt P22303) | item: CC(C)N1Cc2cc(O)ccc2N(C)C1c1ccccc1 (configuration not stated)
Response line: 2.40

Prompt line: Report log10 of IC50 on Acetylcholinesterase (Homo sapiens, UniProt P22303) for this entry: CN1Cc2cc(O)ccc2N(C)C1c1ccc(Cl)cc1 (configuration not stated)
Response line: 2.37

Prompt line: Please respond with reported log10 of IC50 (system Acetylcholinesterase (Homo sapiens, UniProt P22303)) for CN1Cc2cc(O)ccc2N(C)C1c1cccs1 (configuration not stated) .
Response line: 2.35

Prompt line: Answer briefly: log10 of IC50 recorded on Acetylcholinesterase (Homo sapiens, UniProt P22303) for CN1Cc2cc(O)ccc2N(C)C1c1ccc(F)cc1 (configuration not stated)
Response line: 2.16
